Reference source for all entries: the NIST ThermoML archive (doi:10.1021/je020206a)

test.summary: wn = mass fraction of the nth substance listed
run.parameters: 323.15 K; 101.3 kPa; Liquid; w1 = 0.3
assay.metric: mass density (kg/m3)

1) NCCO [2-aminoethan-1-ol] + O ... 997.76
2) OCCNCCO [diethanolamine] + O ... 1019.3
3) CN(CCO)CCO [N-methyldiethanolamine] + O ... 1011.2
4) CC(C)(N)CO [2-amino-2-methylpropan-1-ol] + O ... 983.13

====

test.summary: wn = mass fraction of the nth substance listed
run.parameters: 293.15 K; 101.3 kPa; Liquid; w1 = 0.3
assay.metric: mass density (kg/m3)

1) CC(C)(N)CO [2-amino-2-methylpropan-1-ol] + O ... 999.85
2) OCCNCCO [diethanolamine] + O ... 1042.7
3) CN(CCO)CCO [N-methyldiethanolamine] + O ... 1032.2
4) NCCO [2-aminoethan-1-ol] + O ... 1015.3

====

test.summary: wn = mass fraction of the nth substance listed
run.parameters: 308.15 K; 101.3 kPa; Liquid; w1 = 0.3
assay.metric: mass density (kg/m3)

1) OCCNCCO [diethanolamine] + O ... 1029.1
2) NCCO [2-aminoethan-1-ol] + O ... 1004.9
3) CC(C)(N)CO [2-amino-2-methylpropan-1-ol] + O ... 991.22
4) CN(CCO)CCO [N-methyldiethanolamine] + O ... 1019.9

====

test.summary: wn = mass fraction of the nth substance listed
run.parameters: 313.15 K; 101.3 kPa; Liquid; w1 = 0.3
assay.metric: mass density (kg/m3)

1) CC(C)(N)CO [2-amino-2-methylpropan-1-ol] + O ... 988.72
2) NCCO [2-aminoethan-1-ol] + O ... 1003.2
3) OCCNCCO [diethanolamine] + O ... 1026.4
4) CN(CCO)CCO [N-methyldiethanolamine] + O ... 1018.2

====

test.summary: wn = mass fraction of the nth substance listed
run.parameters: 313.15 K; 101.3 kPa; Liquid; w1 = 0.3
assay.metric: viscosity (mPa·s)

1) OCCNCCO [diethanolamine] + O ... 1.97
2) CN(CCO)CCO [N-methyldiethanolamine] + O ... 1.92
3) NCCO [2-aminoethan-1-ol] + O ... 1.6
4) CC(C)(N)CO [2-amino-2-methylpropan-1-ol] + O ... 2.24

====

test.summary: wn = mass fraction of the nth substance listed
run.parameters: 303.15 K; 101.3 kPa; Liquid; w1 = 0.3
assay.metric: mass density (kg/m3)

1. CC(C)(N)CO [2-amino-2-methylpropan-1-ol] + O ... 994.62
2. CN(CCO)CCO [N-methyldiethanolamine] + O ... 1023.1
3. OCCNCCO [diethanolamine] + O ... 1033.2
4. NCCO [2-aminoethan-1-ol] + O ... 1009.2

====

test.summary: wn = mass fraction of the nth substance listed
run.parameters: 318.15 K; 101.3 kPa; Liquid; w1 = 0.3
assay.metric: viscosity (mPa·s)

1. CN(CCO)CCO [N-methyldiethanolamine] + O ... 1.72
2. OCCNCCO [diethanolamine] + O ... 1.72
3. NCCO [2-aminoethan-1-ol] + O ... 1.5
4. CC(C)(N)CO [2-amino-2-methylpropan-1-ol] + O ... 1.92
